# target.or.test.system: GATA4–NKX2-5 transcriptional synergy (Mus musculus, UniProt P42582+Q08369)
# Construct: expressed in transfected cells; host or cells: COS-1
# Sequence (Q08369 whole entry): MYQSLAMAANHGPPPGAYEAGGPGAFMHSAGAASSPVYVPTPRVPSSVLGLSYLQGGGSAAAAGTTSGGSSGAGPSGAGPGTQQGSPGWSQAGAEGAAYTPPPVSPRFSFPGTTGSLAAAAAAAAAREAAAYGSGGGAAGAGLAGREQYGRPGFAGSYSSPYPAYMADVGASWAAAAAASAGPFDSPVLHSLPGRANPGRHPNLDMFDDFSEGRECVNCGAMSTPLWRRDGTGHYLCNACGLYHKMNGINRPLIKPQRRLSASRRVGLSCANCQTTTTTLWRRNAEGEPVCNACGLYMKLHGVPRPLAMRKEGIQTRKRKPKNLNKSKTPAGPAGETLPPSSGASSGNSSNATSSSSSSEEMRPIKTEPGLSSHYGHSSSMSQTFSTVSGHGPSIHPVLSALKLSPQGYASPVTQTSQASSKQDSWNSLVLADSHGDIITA
# Sequence (P42582 whole entry): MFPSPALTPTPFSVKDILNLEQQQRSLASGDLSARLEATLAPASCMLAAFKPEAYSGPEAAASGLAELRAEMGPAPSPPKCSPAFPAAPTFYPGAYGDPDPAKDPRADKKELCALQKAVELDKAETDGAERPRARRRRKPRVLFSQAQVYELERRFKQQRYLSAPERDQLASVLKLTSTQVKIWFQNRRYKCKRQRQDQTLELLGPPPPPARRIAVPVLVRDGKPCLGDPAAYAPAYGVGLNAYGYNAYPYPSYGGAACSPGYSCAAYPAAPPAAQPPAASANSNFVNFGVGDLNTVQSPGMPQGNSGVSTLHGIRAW
# assay.info: GATA4–NKX2-5 transcriptional synergy luciferase reporter assay (3xNKE reporter, COS-1 cells)
# Assay type: cell-based
# condition.details: COS-1; 3 µM, luciferase reporter activity, % of control
reported.endpoint: activity at 3 µM (%)
Kindly provide the numeric value in % only, without the unit symbol.

Input: Any idea what its activity at 3 µM is? The compound is Cc1onc(-c2ccccc2)c1C(=O)Nc1ccc(-c2ccccc2)cc1 [Compound 4f]
Output: 72.7

Input: What do we get for CN(C)c1ccc(/N=C/c2c[nH]nc2-c2ccc(F)cc2)cc1 [Compound 75] ?
Output: 110

Input: What do we get for Cc1onc(-c2ccccc2)c1COCc1ccc2ccccc2c1 [SI48] ?
Output: 104

Input: What do we get for Cc1onc(-c2ccccc2)c1/N=C/c1ccc(C(C)N(C)C)cc1 (stereo not drawn) [SI45] ?
Output: 88.4

Input: What do we get for CCN(C(=O)c1c(-c2ccccc2)noc1C)c1ccc(Nc2ccccc2)cc1 [SI6] ?
Output: 114

Input: What do we get for Cc1onc(-c2ccccc2)c1C(=O)Nc1ccc(Nc2ccccc2)cc1 [SI5] ?
Output: 105

Input: What do we get for CCN(CC)c1ccc(/N=N/c2c(C)noc2C)cc1 [SI20] ?
Output: 82.6

Input: What do we get for CCN(CC)c1ccc(NC(=O)c2nn(-c3ccccc3)nc2C)cc1 [Compound 47b] ?
Output: 97.7

Input: What do we get for Cc1onc(-c2ccccc2)c1C(=O)N1CCc2cc([N+](=O)[O-])ccc21 [SI16] ?
Output: 99.5

Input: What do we get for CCCCOc1ccc(NC(=O)c2c(-c3ccccc3)noc2C)cn1 [SI7] ?
Output: 97.9

Input: What do we get for CCN(CC)c1ccc(NC(=O)c2c(-c3ccccc3)noc2C)cc1 [Compound 1] ?
Output: 73.7

Input: What do we get for CCN(CC)c1ccc(NC(=O)c2c(-c3ccc(F)cc3)noc2C)cc1 [Compound 39d] ?
Output: 61.4

Input: What do we get for Cc1onc(-c2ccccc2)c1N=Cc1ccc(N(CCO)CCO)cc1 [SI42] ?
Output: 82.9

Input: What do we get for Cc1onc(-c2ccccc2)c1NC(=O)Nc1ccc(C(=O)c2ccccc2)cc1 [SI26] ?
Output: 94.9

Input: What do we get for CCCCCc1ccc(C(=O)Nc2c(-c3ccccc3)noc2C)cc1 [SI34] ?
Output: 97.8

Input: What do we get for CCN(CC)c1ccc(N(Cc2ccccc2)C(=O)c2c(-c3ccccc3)noc2C)cc1 [Compound 25c] ?
Output: 80.2

Input: What do we get for Cc1cc(NC(=O)c2c(-c3ccccc3)noc2C)ccc1C(C)C [Compound 4e] ?
Output: 95.2

Input: What do we get for CCN(CC)c1ccc(N(C)C(=O)c2c(-c3ccccc3)noc2C)cc1 [Compound 25a] ?
Output: 78.1

Input: What do we get for Cc1onc(-c2ccccc2)c1NC(=O)CCCCCBr [SI31] ?
Output: 66.7

Input: What do we get for C#CC[N+](CC)(CC)c1ccc(NC(=O)c2c(-c3ccccc3)noc2C)cc1 [Compound 77] ?
Output: 84

Input: What do we get for CCN(CC)c1ccc(NS(=O)(=O)c2c(C)noc2C)cc1 [SI19] ?
Output: 91.6

Input: What do we get for CCN(CC)c1ccc(NC(=O)c2c(-c3ccc([N+](=O)[O-])cc3)noc2C)cc1 [Compound 39a] ?
Output: 89.2

Input: What do we get for CCN(CC)c1ccc(NC(=O)c2cnoc2C2CC2)cc1 [Compound 47r] ?
Output: 114

Input: What do we get for Cc1onc(-c2ccccc2)c1N=Cc1ccc(N(C)C)cc1 [SI108] ?
Output: 69.3

Input: What do we get for COc1ccc(C(=O)Nc2c(-c3ccccc3)noc2C)cc1 [SI32] ?
Output: 110

Input: What do we get for Cc1onc(-c2ccccc2)c1C(=O)Nc1ccc(N(C)C)cc1 [Compound 4d] ?
Output: 88.1

Input: What do we get for Cc1onc(-c2ccccc2)c1NC(=O)Nc1cccc(C(F)(F)F)c1 [SI24] ?
Output: 109

Input: What do we get for CCC(=O)c1ccc(OCc2c(-c3ccccc3)noc2C)cc1 [Compound 34a] ?
Output: 90.9

Input: What do we get for CCN(CC)c1ccc(NC(=O)c2ncoc2-c2ccccc2)cc1 [Compound 47a] ?
Output: 90.7

Input: What do we get for CCN(CC)c1ccc(NC(=O)c2c(C)nc3ccccn23)cc1 [Compound 47ab] ?
Output: 83.4

Input: What do we get for Cc1onc(-c2ccccc2)c1COCc1ccc(OC(F)(F)F)cc1 [SI49] ?
Output: 92.6

Input: What do we get for Cc1onc(-c2ccccc2)c1C(=O)N(C1=NC(C)CS1)c1ccc(Cl)cc1 (stereo not drawn) [Compound 2] ?
Output: 130

Input: What do we get for Cc1onc(-c2ccccc2)c1NC(=O)OC(C)(C)C [SI17] ?
Output: 99.2

Input: What do we get for CCN(CC)c1ccc(C(=O)Nc2c(C)noc2C)cc1 [SI21] ?
Output: 113

Input: What do we get for Cc1onc(-c2ccccc2)c1C(=O)Nc1ccc(OCCN2CCOCC2)cc1 [Compound 4h] ?
Output: 89.8

Input: What do we get for Nc1c(/N=N/c2ccc([N+](=O)[O-])cc2)c(-c2ccccc2)nn1-c1ccccc1 [SI97] ?
Output: 73.3

Input: What do we get for CCN(CC)c1ccc(C(=O)On2nnc3ccccc32)cc1 [SI22] ?
Output: 80.4

Input: What do we get for Cc1onc(-c2ccccc2)c1COc1ccc([N+](=O)[O-])cc1 [Compound 21b] ?
Output: 94

Input: What do we get for CCN(CC)c1ccc(/N=C/c2onc(-c3ccccc3)c2C(=O)Nc2ccc(N(CC)CC)cc2)cc1 [Compound 48] ?
Output: 74.9

* * *

Could you please report measured MTT.1µM for the items listed next?
# Tested on: COS-1 cells
# assay.info: MTT assay (cell viability)
# Type: cell-based
# condition.details: 1 µM; cell viability
# Protocol: To investigate the toxicity as a potential cause of decreased or increased activity in luciferase reporter gene assays, we tested a set of 40 active compounds in the COS-1 cell line used for the luciferase assays. […] Figure 5 Effects of selected compounds on COS-1 cell viability. (A) Compound-induced necrosis was quantified with the LDH assay after a 24-h compound exposure. […] (B) Cell viability was analyzed with the MTT assay after a 24-h compound exposure. […]

Input: Any idea what its MTT.1µM is? The compound is CCN(CC)c1ccc(NC(=O)c2cnsc2)cc1 [Compound 47s]
Output: 103.66

Input: What do we get for CCN(CC)c1ccc(NC(=O)c2c(-c3ccccc3)nnn2CCc2ccccc2)cc1 [Compound 71] ?
Output: 103.27

Input: What do we get for CCN(CC)c1ccc(NC(=O)c2ccnn2-c2ccccc2)cc1 [SI88] ?
Output: 105.89

* * *

Could you please report measured LDH.10µM for the items listed next?
# System: COS-1 cells
# assay.info: LDH assay (necrosis)
# Type: cell-based
# condition.details: 10 µM
Answer as a number with no unit attached.

Input: Any idea what its LDH.10µM is? The compound is CCC(OC)c1ccc(OCc2c(-c3ccccc3)noc2C)cc1 (racemic) [Compound 34e]
Output: -0.78

Input: What do we get for CCN(c1ccc(NC(=O)c2c(C)noc2-c2ccccc2)cc1)C(C)C ?
Output: -2.08

Input: What do we get for CCN(c1ccc(NC(=O)c2c(-c3ccccc3)noc2C)cc1)C(C)C ?
Output: -0.77

Input: What do we get for CCN(CC)c1ccc(CNc2c(-c3ccccc3)noc2C)cc1 ?
Output: 2.01

Input: What do we get for CCN(CC)c1ccc(NC(=O)c2csc([N+](=O)[O-])c2)cc1 [Compound 47u] ?
Output: 2.98

Input: What do we get for CCN(CC)c1ccc(NC(=O)c2cnc3ncccn23)cc1 [Compound 47aa] ?
Output: 1.6

Input: What do we get for CCN(CC)c1ccc(NC(=O)c2cnoc2-c2ccccc2)cc1 [Compound 47d] ?
Output: -0.44

Input: What do we get for CCN(CC)c1ccc(NCc2c[nH]nc2-c2cc(F)cc(F)c2)cc1 ?
Output: -0.15

* * *

# target.or.test.system: GATA4–NKX2-5 transcriptional synergy (Mus musculus, UniProt P42582+Q08369)
# Construct: expressed in transfected cells; host or cells: COS-1
# assay.info: GATA4–NKX2-5 transcriptional synergy luciferase reporter assay (3xNKE reporter, COS-1 cells)
# Format: cell-based
# condition.details: COS-1; GATA4-NKX2-5 transcriptional synergy luciferase reporter assay, compound at 10 µM
Could you please report measured activity at 10 µM for the items listed next?
Kindly provide the numeric value in % only, without the unit symbol.

Input: Any idea what its activity at 10 µM is? The compound is Cc1cc(-c2noc(C)c2C(=O)Nc2ccc(C(F)(F)F)cc2)no1
Output: 101

Input: What do we get for O=C(Nc1ccc2c(c1)OC(F)(F)O2)c1cc(-c2ccco2)on1 ?
Output: 102

Input: What do we get for CCN(CC)c1ccc(NC(=O)c2cc(-c3ccco3)[nH]n2)cc1 ?
Output: 90.7

Input: What do we get for CCOC(=O)c1cc(NC(=O)c2cc(-c3ccccc3)no2)c[nH]1 ?
Output: 101

Input: What do we get for O=C1COc2ccc(NC(=O)c3cc(-c4ccccc4)[nH]n3)cc2N1 ?
Output: 90.6
